target: human GR (Homo sapiens, UniProt P04150); experiment: Transrepression Assay (GITAR), TNFα-β-lactamase reporter in U937 cells; type: cell-based; design: U937 cells contain an endogenous glucocorticoid receptor (GR); endogenous in cells; host or cells: U937 cells stably transfected with the TNF-alpha promoter/beta-lactamase reporter; conditions: U937 cells; inflection point; read-out: Transrepression U937 Cells GITAR IP
Sequence (P04150 whole entry): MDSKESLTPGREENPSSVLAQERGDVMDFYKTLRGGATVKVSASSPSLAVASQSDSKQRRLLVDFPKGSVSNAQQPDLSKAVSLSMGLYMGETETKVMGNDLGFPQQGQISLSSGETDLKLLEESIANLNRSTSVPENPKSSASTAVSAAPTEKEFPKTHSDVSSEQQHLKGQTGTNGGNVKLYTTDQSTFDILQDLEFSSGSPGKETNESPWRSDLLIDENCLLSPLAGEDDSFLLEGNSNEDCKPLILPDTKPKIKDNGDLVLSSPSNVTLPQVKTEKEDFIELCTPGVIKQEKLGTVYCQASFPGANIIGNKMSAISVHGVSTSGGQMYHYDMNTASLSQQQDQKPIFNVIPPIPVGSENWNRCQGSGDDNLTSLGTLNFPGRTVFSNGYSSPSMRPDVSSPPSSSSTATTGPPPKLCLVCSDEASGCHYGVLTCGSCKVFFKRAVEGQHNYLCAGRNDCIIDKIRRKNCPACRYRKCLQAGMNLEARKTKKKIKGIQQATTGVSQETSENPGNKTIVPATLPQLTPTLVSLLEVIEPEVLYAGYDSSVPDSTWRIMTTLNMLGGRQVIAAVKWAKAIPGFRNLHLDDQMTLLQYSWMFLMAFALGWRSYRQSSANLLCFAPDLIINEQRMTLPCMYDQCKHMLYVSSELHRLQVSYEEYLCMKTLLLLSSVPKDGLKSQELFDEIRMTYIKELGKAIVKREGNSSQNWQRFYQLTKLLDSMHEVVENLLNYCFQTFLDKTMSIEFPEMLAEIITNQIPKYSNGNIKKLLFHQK
measured.metric: pEC50
As a rule, pEC50 stands for the negative log10 of the concentration, concentration in M.

compound: COC(=O)c1ccccc1CS(=O)(=O)N(CC(O)C(F)(F)F)C[C@H]1CCC2=Cc3c(cnn3-c3ccc(F)cc3)C[C@@]21C (some centres unmarked) [Example 162]
pEC50: 6.69

compound: C[C@]12Cc3cnn(-c4ccc(F)cc4)c3C=C1CC[C@@H]2CN(CC#N)S(=O)(=O)c1ccccc1C(F)(F)F [Example 54]
pEC50: 5.96

compound: C[C@]12Cc3cnn(-c4ccc(F)cc4)c3C=C1CC[C@@H]2CN(CC(OS(=O)(=O)CC(F)(F)F)c1ccccn1)S(=O)(=O)CC(F)(F)F (some centres unmarked) [Example 145]
pEC50: 6.71

compound: C[C@]12Cc3cnn(-c4ccc(F)cc4)c3C=C1CC[C@@H]2CN(Cc1cccnn1)S(=O)(=O)CC(F)(F)F [Example 132]
pEC50: 6.10

compound: Cc1ccc(S(=O)(=O)N(CC#N)C[C@H]2CCC3=Cc4c(cnn4-c4ccc(F)cc4)C[C@@]32C)s1 [Example 31]
pEC50: 6.17

compound: CNC(=O)Nc1ccc(S(=O)(=O)N(CCO)C[C@H]2CCC3=Cc4c(cnn4-c4ccc(F)cc4)C[C@@]32C)c(Cl)c1 [Example 76]
pEC50: 5.68

Task item: Using human GR (Homo sapiens, UniProt P04150) as the test system, report measured pEC50 of COC(=O)c1ccccc1S(=O)(=O)N(CC1CC1)C[C@H]1CCC2=Cc3c(cnn3-c3ccc(F)cc3)C[C@@]21C [Example 18] .
Reply: 6.38

Task item: Using human GR (Homo sapiens, UniProt P04150) as the test system, report measured pEC50 of C[C@]12Cc3cnn(-c4ccc(F)cc4)c3C=C1CC[C@@H]2CN(CC#N)S(=O)(=O)c1ccc(F)cc1F [Example 51] .
Reply: 6.73

Task item: Using human GR (Homo sapiens, UniProt P04150) as the test system, report measured pEC50 of CC(=O)Nc1ccc(S(=O)(=O)N(CC2CC2)C[C@H]2CCC3=Cc4c(cnn4-c4ccc(F)cc4)C[C@@]32C)cc1 [Example 6] .
Reply: 6.00

Task item: Using human GR (Homo sapiens, UniProt P04150) as the test system, report measured pEC50 of C[C@]12Cc3cnn(-c4ccc(F)cc4)c3C=C1CC[C@@H]2CN(CC1CC1)S(=O)(=O)c1cc(C(F)(F)F)ccc1Cl [Example 5] .
Reply: 6.65

Task item: Using human GR (Homo sapiens, UniProt P04150) as the test system, report measured pEC50 of C[C@]12Cc3cnn(-c4ccc(F)cc4)c3C=C1CC[C@@H]2CN(CC#N)S(=O)(=O)c1ccccc1-c1ccccc1 [Example 53] .
Reply: 6.08

Task item: Using human GR (Homo sapiens, UniProt P04150) as the test system, report measured pEC50 of C[C@]12Cc3cnn(-c4ccc(F)cc4)c3C=C1CC[C@@H]2CN(CC1(O)CC1)S(=O)(=O)CC(F)(F)F [Example 135] .
Reply: 6.59

Task item: Using human GR (Homo sapiens, UniProt P04150) as the test system, report measured pEC50 of Cc1cc(S(=O)(=O)N(CC#N)C[C@H]2CCC3=Cc4c(cnn4-c4ccc(F)cc4)C[C@@]32C)c(C)cc1Cl [Example 29] .
Reply: 6.08

Task item: Using human GR (Homo sapiens, UniProt P04150) as the test system, report measured pEC50 of C[C@]12Cc3cnn(-c4ccc(F)cc4)c3C=C1CC[C@@H]2CN(CC#N)S(=O)(=O)c1ccccc1F [Example 43] .
Reply: 5.96
